Protocol Notes: experimentally determined lipophilicity (logPTLC)
Assay type: physicochemical
Condition Context: thin-layer chromatography (TLC)
Result Type: chromatographic logP

The examples below pair each entry with its known result.
[[record]]
line_notation = "C[n+]1cc2c(c3ccccc31)Nc1ccc(Cl)nc1S2"
result_type = "chromatographic logP"
reported = 4.62

[[record]]
line_notation = "C[n+]1cc2c(c3ccccc31)Nc1ccc(I)nc1S2"
result_type = "chromatographic logP"
reported = 5.09

[[record]]
line_notation = "Cc1cc(F)nc2c1Nc1c(c[n+](C)c3ccccc13)S2"
result_type = "chromatographic logP"
reported = 5.72

[[record]]
line_notation = "Cc1cc(Cl)nc2c1Nc1c(c[n+](C)c3ccccc13)S2"
result_type = "chromatographic logP"
reported = 5.66


I: COc1ccc2c(n1)Sc1c[n+](C)c3ccccc3c1N2
II: C[n+]1cc2c(c3ccccc31)Nc1cnccc1S2
Input: Which item exceeds the other in chromatographic logP, I or II ? API: response body contains the label of the selected item.
Output: I
(I: 4.2, II: 2.93)

The values you see were collected from paper PMC8658022.
